# Tested on: A549
# test-method-notes: MTT cytotoxicity assay, A549
# Assay type: cell-based
# experimental-context: Homo sapiens, A549, lung carcinoma, 48 hours, absolute IC50
endpoint-name: IC50 (µM)
Only the number, expressed in µM, is required.

These solved cases illustrate the format of a correct answer.
compound	IC50 / µM
C=C(C)C(=O)O[C@H]1C/C(C)=C/C(=O)/C=C(/C)[C@@H](OC(=O)c2cc(C(F)(F)F)cc(C(F)(F)F)c2)[C@H]2OC(=O)C(=C)C12 (stereo partly shown)	5.86
C=C(C)C(=O)O[C@H]1C/C(C)=C/C(=O)/C=C(/C)[C@@H](OC(=O)c2ccccc2)[C@H]2OC(=O)C(=C)C12 (stereo partly shown)	5.08
C=C(C)C(=O)O[C@H]1C/C(C)=C/C(=O)/C=C(/C)[C@@H](O)[C@H]2OC(=O)C(=C)C12 (stereo partly shown) [NYH001, Molephantin]	15

Next compound, IC50 to be filled in.
Fill in: IC50 of C=C(C)C(=O)O[C@H]1C/C(C)=C/C(=O)/C=C(/C)[C@@H](OC(=O)c2ccc(C(F)(F)F)cc2)[C@H]2OC(=O)C(=C)C12 (stereo partly shown) is ___
5.23
